# Test system: M14 melanoma
# procedure-text: NCI-60 one-dose screen, 48 h (100 = growth as untreated, 0 = no growth, -100 = all killed)
# test-parameters: 10 µM
This is part of a sample that, as a whole, favours compounds with a hit. Of some 83,000 tested, about 20% had one in any assay.
Binning rule for recorded growth: lower band (below 10%), central band (10% to below 70%), upper band (70% or more)

[[record]]
compound = "Cc1ccc(C(=O)N/C(=C2/OCCN2C)[P+](c2ccccc2)(c2ccccc2)c2ccccc2)cc1"
classification = "upper band"

[[record]]
compound = "CN1CCN(c2ccc(Nc3nc(NCCNC(=O)c4ccc(C(F)(F)F)cc4)c4sccc4n3)cc2)CC1"
classification = "lower band"

[[record]]
compound = "CCOC(=O)C1=C(N)N(c2ccccc2)C2=C(C(=O)CC(C)(C)C2)C1c1ccc(Cl)cc1 (stereo not given)"
classification = "central band"

[[record]]
compound = "COc1cc2c3c(n(CCCN4CCOCC4)c(=O)c2cc1OC)-c1nc2c(cc1C3=O)OCO2"
classification = "central band"

[[record]]
compound = "CN(C(=O)c1ccc(C(F)(F)F)cc1C(F)(F)F)c1sc2c(c1C#N)CCC(=O)C2"
classification = "upper band"

[[record]]
compound = "O=S(=O)(c1ccc(Cl)cc1)c1nc(-c2ccccc2)oc1S(=O)(=O)c1ccc(Cl)cc1"
classification = "upper band"

[[record]]
compound = "O=C(Cc1ccc2c(c1)CN(C1CCC(=O)NC1=O)C2=O)NCc1cccc2ccccc12 (stereo not given)"
classification = "lower band"

[[record]]
compound = "Cn1c(O)c(N=Nc2nc(-c3cc4ccccc4oc3=O)cs2)c2cc(Br)ccc21"
classification = "upper band"

[[record]]
compound = "Cc1ccc(-c2nc3ccc(C(=O)N=Nc4c(O)[nH]c5ccc(Cl)cc45)cc3[nH]2)cc1"
classification = "lower band"

[[record]]
compound = "Cc1ccc2nc(COc3ccc(C(=O)NNC(=S)NC(=O)c4ccccc4)cc3)[nH]c2c1"
classification = "central band"


---

# Tested on: UACC-257 melanoma
# procedure-text: NCI-60 one-dose screen, 48 h (100 = growth as untreated, 0 = no growth, -100 = all killed)
# test-parameters: 10 µM
About 83,000 compounds went through this panel and 20% of them were active in at least one assay; those are over-represented in the sample as a whole.
Binning rule for recorded growth: lower level = under 50%, middle level = from 50% up to 90%, upper level = 90% and over

[[record]]
molecule = "O=C(c1ccc(Cl)cc1)C1[C@H](c2ccccc2Br)[C@@H](c2ccccc2)NC12C(=O)Nc1ccc(Br)cc12 (stereo not given in full)"
target_or_test_system = "UACC-257 melanoma"
classification = "lower level"

[[record]]
molecule = "COc1ccc(OC)c(/C=N/NC(=O)c2ccc3nc(-c4ccc(Cl)cc4)[nH]c3c2)c1"
target_or_test_system = "UACC-257 melanoma"
classification = "upper level"

[[record]]
molecule = "CCOc1ccc(/C=N/NC(=O)Cn2nc(Cc3ccccc3)c3onc(C)c3c2=O)cc1"
target_or_test_system = "UACC-257 melanoma"
classification = "middle level"

[[record]]
molecule = "COc1ccc2nc(Cl)c(-c3cc(-c4ccccc4)nc(=O)[nH]3)cc2c1"
target_or_test_system = "UACC-257 melanoma"
classification = "upper level"

[[record]]
molecule = "O=C(c1ccc(-n2c(=O)[nH]c3ccccc3c2=O)cc1)N1CCOCC1"
target_or_test_system = "UACC-257 melanoma"
classification = "upper level"

[[record]]
molecule = "CC(=O)Nc1ccc(-n2cnc3cc(-c4ccc(O)cc4)ccc32)cc1F"
target_or_test_system = "UACC-257 melanoma"
classification = "middle level"

[[record]]
molecule = "Cc1ccn2c(C(=O)c3ccccc3)cc(-c3cc(-c4ccc(N(C)C)cc4)c(C#N)c(N)n3)c2c1"
target_or_test_system = "UACC-257 melanoma"
classification = "middle level"

[[record]]
molecule = "O=c1oc2ccc(-c3ccc(F)cc3F)cc2c(=O)n1-c1ccc(F)c(Cl)c1"
target_or_test_system = "UACC-257 melanoma"
classification = "lower level"

